experimental_system: D(4) dopamine receptor (Rattus norvegicus, UniProt P30729)
Sequence (P30729 whole entry): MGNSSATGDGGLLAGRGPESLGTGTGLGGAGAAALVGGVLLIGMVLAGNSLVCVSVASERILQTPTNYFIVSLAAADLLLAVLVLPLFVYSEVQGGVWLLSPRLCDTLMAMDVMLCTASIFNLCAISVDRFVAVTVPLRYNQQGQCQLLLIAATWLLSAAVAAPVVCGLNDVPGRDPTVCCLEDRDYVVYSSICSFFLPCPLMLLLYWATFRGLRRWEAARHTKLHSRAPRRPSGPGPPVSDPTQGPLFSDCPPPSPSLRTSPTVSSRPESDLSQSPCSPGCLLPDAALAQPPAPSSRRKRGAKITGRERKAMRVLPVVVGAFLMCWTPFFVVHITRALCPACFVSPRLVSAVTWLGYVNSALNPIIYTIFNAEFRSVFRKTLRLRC
pKi: −log10 of the molar value.
Dear all, I have gathered published pKi values for D(4) dopamine receptor (Rattus norvegicus, UniProt P30729); the list follows.
property_name: pKi

Examples with answers:
{"compound": "CCCCN1CCC(COC(=O)c2ccc(N)c(OC)c2)CC1", "pKi": 5.90}
{"compound": "COc1ccc(N2CCN(Cc3c[nH]c4ncccc34)CC2)cc1", "pKi": 8.44}
{"compound": "Fc1ccc(N2CCN(Cc3c[nH]c4ncccc34)CC2)cc1", "pKi": 8.64}
{"compound": "O=C1c2ccc(Cl)cc2CC1CCN1CCc2ccccc2C1 (stereo unspecified)", "pKi": 7.30}
{"compound": "C1=C(CCN2CCc3ccccc3C2)CCc2ccccc21", "pKi": 6.85}

(P) Fc1ccc(CCCCN2CCCN(c3ccc(Cl)cc3)CC2)cc1
(Q) COc1cccc(C(=O)NCCN2CCN(c3ccc(C#N)cc3)CC2)c1
Could you kindly indicate whether P or Q has the higher pKi value? Respond using the label that marks the chosen record.
Q

====

experimental_system: D(4) dopamine receptor (Rattus norvegicus, UniProt P30729)
Sequence (P30729 whole entry): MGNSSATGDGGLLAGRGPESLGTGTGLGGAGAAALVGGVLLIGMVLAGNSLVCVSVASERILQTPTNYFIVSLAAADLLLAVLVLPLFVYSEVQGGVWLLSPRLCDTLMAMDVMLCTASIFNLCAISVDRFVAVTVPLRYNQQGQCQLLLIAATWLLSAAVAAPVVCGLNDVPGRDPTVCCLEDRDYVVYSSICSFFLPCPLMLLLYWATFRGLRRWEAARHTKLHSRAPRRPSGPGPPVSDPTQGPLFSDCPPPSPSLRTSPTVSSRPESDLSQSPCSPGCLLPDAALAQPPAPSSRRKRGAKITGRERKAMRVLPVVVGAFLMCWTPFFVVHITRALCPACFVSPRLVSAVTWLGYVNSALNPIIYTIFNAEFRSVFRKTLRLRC
Literature-derived Ki for D(4) dopamine receptor (Rattus norvegicus, UniProt P30729) follows.
property_name: Ki (nM)

Example molecules with recorded Ki:
{"smi": "COc1cc2c(cc1OC)CN(CCCCc1nc3cc(Cl)ccc3s1)CC2", "experimental_system": "D(4) dopamine receptor (Rattus norvegicus, UniProt P30729)", "readout_unit": "nM", "Ki": 272}
{"smi": "Fc1ccc(SCCCN2CCN(c3ncccn3)CC2)cc1", "experimental_system": "D(4) dopamine receptor (Rattus norvegicus, UniProt P30729)", "readout_unit": "nM", "Ki": 21}
{"smi": "O=C(NCCN1CCN(c2ccc(Cl)cn2)CC1)c1ccc(F)cc1", "experimental_system": "D(4) dopamine receptor (Rattus norvegicus, UniProt P30729)", "readout_unit": "nM", "Ki": 2.92}
{"smi": "O=C(NCCN1CCN(c2ccc(Cl)cc2)CC1)c1ccc(F)cc1", "experimental_system": "D(4) dopamine receptor (Rattus norvegicus, UniProt P30729)", "readout_unit": "nM", "Ki": 1.76}
{"smi": "COc1cccc(C(=O)NCCN2CCN(c3ccc(Cl)cc3)CC2)c1", "experimental_system": "D(4) dopamine receptor (Rattus norvegicus, UniProt P30729)", "readout_unit": "nM", "Ki": 4.97}

(1) C=Cc1ccc(N2CCN(Cc3c[nH]c4ncccc34)CC2)cc1
(2) Clc1cccc2c1CN(CCCCc1nc3ccccc3s1)CC2
1 or 2 : whose Ki is greater? Label of pick, please.
2

====

experimental_system: D(4) dopamine receptor (Rattus norvegicus)
Sequence (P30729 whole entry): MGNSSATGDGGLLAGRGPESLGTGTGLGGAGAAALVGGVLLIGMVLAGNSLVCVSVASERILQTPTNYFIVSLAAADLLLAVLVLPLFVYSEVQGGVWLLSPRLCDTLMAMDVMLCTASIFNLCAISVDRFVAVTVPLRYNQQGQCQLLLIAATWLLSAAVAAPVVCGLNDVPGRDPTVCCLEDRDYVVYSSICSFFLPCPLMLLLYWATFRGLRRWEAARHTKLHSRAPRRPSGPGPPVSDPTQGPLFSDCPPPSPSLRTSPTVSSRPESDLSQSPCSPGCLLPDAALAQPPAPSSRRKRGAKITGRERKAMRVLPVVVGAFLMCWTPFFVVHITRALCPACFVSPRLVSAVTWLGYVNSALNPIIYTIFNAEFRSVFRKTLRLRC
# Ki against D(4) dopamine receptor (Rattus norvegicus), merged from multiple literature sources
property_name: Ki (nM)

Some compounds with known Ki results, for comparison:
{"smi": "c1ccc(-c2ccc(N3CCN(Cc4c[nH]c5ncccc45)CC3)cc2)cc1", "Ki, nM": 148}
{"smi": "c1ccc2c(c1)CCN(CCCc1nc3ccccc3s1)C2", "Ki, nM": 41}
{"smi": "COc1cccc(C(=O)NCCN2CCN(c3ncccc3C#N)CC2)c1", "Ki, nM": 1.52}
{"smi": "O=C(CCCN1CCCN(c2ccc(Cl)cc2)CC1)c1nc2ccccc2s1", "Ki, nM": 126}
{"smi": "N#Cc1cccnc1N1CCN(CCNC(=O)c2ccc(F)cc2)CC1", "Ki, nM": 0.93}

(A) Cl.Cl.c1ccc2c(c1)CCN(CCCc1nc3ccccc3[nH]1)C2
(B) Cc1ccc(N2CCN(CCNC(=O)c3ccc(F)cc3)CC2)cc1
Identify the item whose Ki is the smaller number: A or B Respond with the label that goes with your answer.
B
